c-Met (Homo sapiens, UniProt P08581) Ki data
Sequence (P08581 25-1390): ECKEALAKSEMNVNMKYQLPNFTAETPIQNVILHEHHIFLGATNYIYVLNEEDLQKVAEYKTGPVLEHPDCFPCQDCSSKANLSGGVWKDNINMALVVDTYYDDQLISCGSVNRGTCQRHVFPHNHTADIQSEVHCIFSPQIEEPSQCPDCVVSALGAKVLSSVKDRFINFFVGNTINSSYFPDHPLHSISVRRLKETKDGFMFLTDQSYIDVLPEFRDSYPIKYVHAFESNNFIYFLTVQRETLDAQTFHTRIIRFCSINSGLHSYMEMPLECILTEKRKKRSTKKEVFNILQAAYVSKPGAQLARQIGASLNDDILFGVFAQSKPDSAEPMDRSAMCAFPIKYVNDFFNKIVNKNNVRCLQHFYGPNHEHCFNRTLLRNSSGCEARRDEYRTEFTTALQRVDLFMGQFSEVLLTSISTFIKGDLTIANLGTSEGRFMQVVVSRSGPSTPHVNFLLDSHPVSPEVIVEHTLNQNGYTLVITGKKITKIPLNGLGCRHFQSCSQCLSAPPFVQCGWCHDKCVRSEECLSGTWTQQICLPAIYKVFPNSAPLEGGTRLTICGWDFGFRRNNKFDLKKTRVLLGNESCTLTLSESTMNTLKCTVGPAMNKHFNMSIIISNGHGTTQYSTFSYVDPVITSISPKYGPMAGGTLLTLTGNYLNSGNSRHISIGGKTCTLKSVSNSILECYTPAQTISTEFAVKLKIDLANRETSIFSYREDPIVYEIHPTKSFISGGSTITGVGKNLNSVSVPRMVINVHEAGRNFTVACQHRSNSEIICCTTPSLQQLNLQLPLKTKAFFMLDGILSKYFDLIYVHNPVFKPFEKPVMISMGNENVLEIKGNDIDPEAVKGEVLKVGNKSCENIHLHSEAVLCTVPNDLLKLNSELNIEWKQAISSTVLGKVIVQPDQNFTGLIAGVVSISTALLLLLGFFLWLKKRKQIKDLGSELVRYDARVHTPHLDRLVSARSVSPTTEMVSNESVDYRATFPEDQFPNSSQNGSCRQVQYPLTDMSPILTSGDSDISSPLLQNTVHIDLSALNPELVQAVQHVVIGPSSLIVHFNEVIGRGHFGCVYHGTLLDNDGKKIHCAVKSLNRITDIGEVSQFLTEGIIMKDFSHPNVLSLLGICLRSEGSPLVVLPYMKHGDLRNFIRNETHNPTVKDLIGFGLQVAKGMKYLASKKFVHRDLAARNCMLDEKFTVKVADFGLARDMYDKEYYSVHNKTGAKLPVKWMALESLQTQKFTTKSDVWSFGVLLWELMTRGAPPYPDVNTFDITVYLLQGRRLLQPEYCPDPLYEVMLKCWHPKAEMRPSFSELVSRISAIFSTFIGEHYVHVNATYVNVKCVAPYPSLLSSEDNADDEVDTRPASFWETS

COMPOUND STRUCTURE | Ki
Nc1nn2cc(-c3cccnc3N3CCC(N4CCCC4)CC3)cnc2c1-c1ccccn1 | 500 to 5000 nM
Nc1nn2cc(-c3cccnc3N3CCC[C@H]3CO)cnc2c1-c1ccccn1 | 500 to 5000 nM
CCN(CC)C(=O)c1ccc(-c2cnc3c(-c4ccccn4)c(N)nn3c2)nc1 | < 500 nM
CC(C)N1CCN(c2ccc(-c3cnc4c(-c5ccccn5)c(N)nn4c3)cn2)CC1 | < 500 nM
CCN(CCN)c1ccc(-c2cnc3c(-c4ccccn4)c(N)nn3c2)cn1 | < 500 nM
Nc1nn2cc(-c3ccccc3C(=O)O)cnc2c1-c1ccccn1 | 500 to 5000 nM
CN(C)CCN(C)C(=O)c1ccc(-c2cnc3c(-c4ccccn4)c(N)nn3c2)cc1 | < 500 nM
Nc1nn2cc(-c3ccc(C(=O)N4CCC[C@H]4CN4CCCC4)cn3)cnc2c1-c1ccccn1 | < 500 nM
